# credit: the supplement of paper PMC10724198

Test system: Saccharomyces cerevisiae
test-details: protein stability index of tFT-peptide fusion (C-terminal peptide) (PSI (0-1 scale)); higher = more stable (slower turnover);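 note: PSI is a weighted mean of sequencing reads over stability bins, variants kept only with over 10 reads, mCherry proximal and sfGFP distal, peptide attached via GGGS linker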
stated-conditions: genetic background: doa10 deletion; temperature: 30 C
Lab note: anything with protein stability index at or over 0.3 counts as y; the rest go in n.

biosequence	category-label
VSSSFSVLVLLF	y
GGKTLSIFLRIS	n
WGLGWRGALVAV	n
ILLYCVLIDPYS	n
FVVVGVLFLCVG	n
SLCPFLCILCFG	n
VRFSAVFVKVGV	y
PWLLHTPLSLVF	y
LWVSHFVILIVS	n
LLGHLFTMLVIY	y
QCLSYFFPVPVA	n
SFFVCVRVFGCC	n
SRKRIVALMLSG	n
FLCVLYFFLCVE	n
GQLIYQHIFILG	y
WLCLFRFLGVAY	n

---

Listed below: protein stability index values for each entry.
Tested on: Saccharomyces cerevisiae
test-details: protein stability index of tFT-peptide fusion (C-terminal peptide) (PSI (0-1 scale)); higher = more stable (slower turnover)
stated-conditions: genetic background: wild type; temperature: 30 C
readout-kind: protein stability index

biosequence	assayed-system	recorded-result
ESGRGGVGVGWG	Saccharomyces cerevisiae	0.709
NLGLSGRYAPCK	Saccharomyces cerevisiae	0.689
YEMTGHVVTHEI	Saccharomyces cerevisiae	0.69
PAPRPAPPSLPP	Saccharomyces cerevisiae	0.709
LVFSTLGSCFDG	Saccharomyces cerevisiae	0.685

---

Tested on: Saccharomyces cerevisiae
test-details: protein stability index of tFT-peptide fusion (C-terminal peptide) (PSI (0-1 scale)); higher = more stable (slower turnover)
stated-conditions: genetic background: wild type; temperature: 37 C
Lab note: anything with protein stability index at or over 0.4 counts as 1.0; the rest go in 0.0.

biosequence	category-label
VTTTWTWTVRLC	0.0
ALFLYNCVVVTD	0.0
FRHFPLLLSFVR	1.0
DDESLVGRWRKV	1.0
GLSGFLLLIVLY	0.0
LGRYHPWLLFLC	0.0
WLCLFRFLGVAY	0.0
AWGSWTLCVAVH	0.0
LVGYCGAWACVV	1.0
GLRLRCPLLLSL	1.0
AMFQLRLLVGSV	1.0
RKRKKISEIIAI	1.0
LPLHPHRSRYLV	0.0
GVFISFFFVFRF	0.0
GRWGGYVGREWG	1.0
VVAALTPLITVA	0.0
GYRGRITRLVNG	0.0
AGGLLIGSVGVG	1.0
LLSAFPYLPVFA	0.0
FCVGVVIQLSGV	1.0
IYNIIFKYRTIT	0.0
PLFPLLGLLFFF	1.0
LFIFYCFFFLVR	0.0
EVGTMALISCSV	1.0
LKFSLLLPVQVI	0.0
NYVVFVRGIKIT	0.0
GTRREFVILYLF	0.0
IKWRCLFCVCVL	1.0
FERKVHSRWLFF	1.0
LFHSFFLYCLMS	1.0
RSKWEKLDKIVS	1.0
TALSRLFECFLS	1.0
SFFWAMSLLCFV	1.0
SDGGVVRGGCRG	1.0
ASIEVGNVIKQM	1.0
SVLVSVVLFVRS	0.0
HCLGWCFSRLSS	1.0
GRPYHLCLFSCF	1.0
CFYVGFLGYFVF	1.0
LLYYMPELLILT	0.0
FCHFSSLVSVSL	1.0
DAIVLGSVVVCR	1.0
KKKKNIKIKKQI	0.0
WAIMGLIIFCLF	0.0
PSPVRSSYASTL	1.0
ARVSLSFVSVSA	1.0
FSCWLFMLCVFL	1.0
SVFFRPVLICCA	0.0
DNLYSLEFMAIR	1.0
GSMGGVGVLGGD	1.0
RWGLCFVHVTMF	0.0
LMLIPRLLVGAH	0.0
FFCYFFEFFICG	1.0
VTLVIYVLVQLT	0.0
LFCVCFYGRIFL	1.0
KFKRLTKFYARQ	0.0
ASSSPAPYAPYT	1.0
LRVLSVVRLSVW	1.0

---

Listed below: protein stability index values for each entry.
Test system: Saccharomyces cerevisiae
test-details: protein stability index of tFT-peptide fusion (C-terminal peptide) (PSI (0-1 scale)); higher = more stable (slower turnover)
stated-conditions: genetic background: cdc53-1; temperature: 37 C

biosequence	protein stability index
FRFGAKISLIVL	0.565
GGVCVRMECWMG	0.629
PFFFSFILVLFW	0.172
ACEFRFFYVFRC	0.245
VCQVCVCFLFWR	0.0539
YRGFFIGKLMLV	0.548
FYGVRFLVCVSA	0.0332
LYRSLLLSFCVL	0.638
SWLAQCVVISLL	0.654
VVWFCGFFFVMV	0.449
WRMRCGLIIGLV	0.0521
IGWKLNRIQKNI	0.735
SLRICACMTVSW	0.373
CRLLVFGLCVGA	0.332
RRVFPLIIVLLF	0.152
SSVFLGWLIVCY	0.115
PVWLFLVRAIKG	0.455
FLCVLYFFLCVE	0.321
FSAVVCPTVFLC	0.725
ARFFFFCVGILI	0.474

---

Tested on: Saccharomyces cerevisiae
test-details: protein stability index of tFT-peptide fusion (C-terminal peptide) (PSI (0-1 scale)); higher = more stable (slower turnover)
stated-conditions: genetic background: cdc34-1; temperature: 37 C
readout-kind: protein stability index

biosequence	assayed-system	readout-kind	recorded-result
CSRDVFLFIKFL	Saccharomyces cerevisiae	protein stability index	0.391
SQCVVYLSVRFS	Saccharomyces cerevisiae	protein stability index	0.358
FSSRVFLIVGIY	Saccharomyces cerevisiae	protein stability index	0.45
WRMRCGLIIGLV	Saccharomyces cerevisiae	protein stability index	0.0313
LLSAFPYLPVFA	Saccharomyces cerevisiae	protein stability index	0.277
RFFFSSFPLLIS	Saccharomyces cerevisiae	protein stability index	0.327
VVLRCGCLVFIN	Saccharomyces cerevisiae	protein stability index	0.419
RSCKSIRGIFVC	Saccharomyces cerevisiae	protein stability index	0.606
YLVFSLCSYRFL	Saccharomyces cerevisiae	protein stability index	0.596
FFGFFWLFLLFC	Saccharomyces cerevisiae	protein stability index	0.239
MGDFGFIFVFFL	Saccharomyces cerevisiae	protein stability index	0.544
RLVMAVRVAAGG	Saccharomyces cerevisiae	protein stability index	0.509
LCWLVHFFLWVS	Saccharomyces cerevisiae	protein stability index	0.35
LVWDLFRCFSML	Saccharomyces cerevisiae	protein stability index	0.582
FCVGVLFSCLVF	Saccharomyces cerevisiae	protein stability index	0.338
FLQIIIFSRVLF	Saccharomyces cerevisiae	protein stability index	0.455
VNRRCWISRTLP	Saccharomyces cerevisiae	protein stability index	0.599
AVLAALVSTLAG	Saccharomyces cerevisiae	protein stability index	0.548
RPCLSALRFRFF	Saccharomyces cerevisiae	protein stability index	0.68
VCVVVLVGVVFL	Saccharomyces cerevisiae	protein stability index	0.188
QCLSYFFPVPVA	Saccharomyces cerevisiae	protein stability index	0.073
VWGLGWLVVGVG	Saccharomyces cerevisiae	protein stability index	0.179
FSCWLFMLCVFL	Saccharomyces cerevisiae	protein stability index	0.434
VYFPRLLVRVSW	Saccharomyces cerevisiae	protein stability index	0.449
SRVHHLWAILVP	Saccharomyces cerevisiae	protein stability index	0.231
AMFQLRLLVGSV	Saccharomyces cerevisiae	protein stability index	0.489
PSLPPLPPFAAL	Saccharomyces cerevisiae	protein stability index	0.73
FCGLLGVCLVMG	Saccharomyces cerevisiae	protein stability index	0.208
YNRKQEAAQKAN	Saccharomyces cerevisiae	protein stability index	0.671
EVGTMALISCSV	Saccharomyces cerevisiae	protein stability index	0.385
PIKIYGYLTTVV	Saccharomyces cerevisiae	protein stability index	0.597
MWRWASKCRFSM	Saccharomyces cerevisiae	protein stability index	0.668
LGRYHPWLLFLC	Saccharomyces cerevisiae	protein stability index	0.261
ACACFWVVWVGW	Saccharomyces cerevisiae	protein stability index	0.262
PFFFSFILVLFW	Saccharomyces cerevisiae	protein stability index	0.172
FCLLRYPFVGVL	Saccharomyces cerevisiae	protein stability index	0.625
NHKNANAATLIN	Saccharomyces cerevisiae	protein stability index	0.645
ARKWVAVTVTLW	Saccharomyces cerevisiae	protein stability index	0.137
CRWHLRIVRGLM	Saccharomyces cerevisiae	protein stability index	0.561
VWSSSYVPLGVY	Saccharomyces cerevisiae	protein stability index	0.319
TRKKENERRKNG	Saccharomyces cerevisiae	protein stability index	0.653
LGFFPSPVLCVF	Saccharomyces cerevisiae	protein stability index	0.104
HVLGSIYWAIFV	Saccharomyces cerevisiae	protein stability index	0.497
FSLWSRRSITVY	Saccharomyces cerevisiae	protein stability index	0.0495
FCSNLLSMVIAV	Saccharomyces cerevisiae	protein stability index	0.344
LFVFVLAGFCCV	Saccharomyces cerevisiae	protein stability index	0.352
VCFAWWGARCVA	Saccharomyces cerevisiae	protein stability index	0.601
ILVLKFLRLLSA	Saccharomyces cerevisiae	protein stability index	0.525
LYRSLLLSFCVL	Saccharomyces cerevisiae	protein stability index	0.593
YVLLSRVSVFSA	Saccharomyces cerevisiae	protein stability index	0.446
LFFGFFLIYFLG	Saccharomyces cerevisiae	protein stability index	0.428
RKRKKISEIIAI	Saccharomyces cerevisiae	protein stability index	0.664
AFRLRHEIISLM	Saccharomyces cerevisiae	protein stability index	0.552
LLLLRCLWISHA	Saccharomyces cerevisiae	protein stability index	0.324
IVGVLAVLVRPV	Saccharomyces cerevisiae	protein stability index	0.484
ASIEVGNVIKQM	Saccharomyces cerevisiae	protein stability index	0.672
VRSELHINSFIH	Saccharomyces cerevisiae	protein stability index	0.656
CGLGKVLGWRWV	Saccharomyces cerevisiae	protein stability index	0.643
LPSRWVPLPTPA	Saccharomyces cerevisiae	protein stability index	0.536
SVSMYPKPHLIC	Saccharomyces cerevisiae	protein stability index	0.571
FLSVPHLLFLFI	Saccharomyces cerevisiae	protein stability index	0.608
CLILGLFSLIFL	Saccharomyces cerevisiae	protein stability index	0.525
FFLLLVSVLSGW	Saccharomyces cerevisiae	protein stability index	0.177
MALAVRVVSCGA	Saccharomyces cerevisiae	protein stability index	0.294
SVLAIWLTVTLK	Saccharomyces cerevisiae	protein stability index	0.0666
